These data points were gathered from PubChem BioAssay (NCI).

I'd be grateful if you could share measured TGI for these entries.
Tested on: MDA-MB-468 breast
Assay: NCI tumour cell line growth inhibition, 48 h

Fc1[nH]nc2ccc([C@@H]3Nc4ccc5[nH]ncc5c4[C@H]4C5CCC(C5)[C@@H]34)cc12 (some centres undefined)
12000 nM
Cc1ccc(CN2CCC(C(=O)Nc3ccc(-c4cc5ccccc5[nH]4)cc3)CC2)o1
> 100000 nM
COc1cc(/C=N\NC(=O)CN2CCN(c3cc4c(cc3F)c(=O)c(C(=O)N/N=C/c3cc(OC)c(OC)c(OC)c3)cn4C3CC3)CC2)cc(OC)c1OC
535 nM

Record CCN1/C(=C\c2cc[n+](CC)c3ccccc23)C=Cc2ccccc21 . Reported TGI: 519 nM
